- Tested on: HepG2
- run description: cell viability relative to DMSO; higher = less toxic
- test settings: 72 h; 10 nM

compound | cell viability
CCOC(=O)c1cnc2c(cnn2CC)c1NN=C(C)C [etazolate] | 93%
N#C/C(=C\c1ccc(O)c(O)c1)C(N)=O | 112%
CNc1nc(-c2ccc3c(N)n[nH]c3c2)cc(N2C[C@@H](C(=O)NC3CCCCC3)CC[C@H]2C)n1 | 108%
Cn1c(=O)c2[nH]c(Br)nc2n(C)c1=O | 94.8%
CC1(C)[C@@H](O)CC[C@]2(C)[C@H]3C(=O)C=C4[C@@H]5C[C@@](C)(C(=O)O)CC[C@]5(C)CC[C@@]4(C)[C@]3(C)CC[C@@H]12 | 90.9%
Cc1cccn2c(=O)c(-c3nnn[nH]3)cnc12 | 98.2%
COc1cc2c(c(OC)c1OC)-c1ccc(OC)c(=O)cc1[C@@H](NC(C)=O)CC2 | 91.2%
O=C(C[S+]([O-])Cc1ccco1)NC/C=C\COc1cc(CN2CCCCC2)ccn1 (configuration not stated) | 95.4%
COc1ccc(C(=O)C2CCN(CC(=O)N(Cc3nc4c(c(=O)[nH]3)COCC4)CC3CC3)CC2)cc1 | 106%
CN1C(C(=O)Nc2ccccn2)=C(O)c2sccc2S1(=O)=O | 96%
C#C[C@]1(O)CC[C@H]2[C@@H]3CCC4=CC(=O)CCC4=C3C=C[C@@]21CC | 103%
COc1cc2c(cc1OC)CN(C(=O)[C@@H](NCc1ccncc1)C(C)(C)C)CC2 | 93.1%
CC(Cc1cccc(C(F)(F)F)c1)NCCOC(=O)c1ccccc1 (configuration not stated) | 96.6%
CCNC(=O)CC[C@H](N)C(=O)O | 89.8%
C[C@H]1C[C@@H]2[C@H]([C@@H](O)C[C@@]3(C)[C@H]2CC[C@]3(O)C(=O)COC(=O)CCC(=O)O)[C@@]2(C)C=CC(=O)C=C12 [methylprednisolone-sodium-succinate] | 101%
CCCCCCCCCCCCCCOC(=O)c1cccnc1 [myristyl-nicotinate] | 93.5%
O=c1cc(-c2ccccc2)oc2cc(O)c(O)c(O)c12 | 102%
C[C@](N)(Cc1ccc(O)cc1)C(=O)O | 97.3%
CC(COc1ccccc1)N(CCCl)Cc1ccccc1 (configuration not stated) | 106%
NC(=O)c1ccc([N+](=O)[O-])cc1Cl [aklomide] | 95.9%
c1ccc(CN(CC2=NCCN2)c2ccccc2)cc1 | 91.8%
O=C(NC(=O)c1c(F)cccc1Cl)NC1c2ccccc2-c2ccccc21 | 103%

---

- Test system: Caco-2
- run description: cell viability relative to DMSO; higher = less toxic
- test settings: 72 h; 100 nM
# cell viability per entry

molecule | u | cell viability
Oc1cccc(Nc2ncc(F)c(Nc3cccc(O)c3)n2)c1 [R112] | % | 99.1
COc1ccc(-c2oc3cc(OC)ccc3c2C(=O)c2ccc(C#N)cc2)cc1 | % | 95.3
CCCCNc1nc(N)c2[nH]c(=O)n(Cc3ccc(OCCN(C)C)nc3)c2n1 [DSR-6434] | % | 92.7
O=C(O)c1ccccc1NCCc1ccccc1 [tromaril] | % | 96.9
CCCc1c2oc(C(=O)O)cc(=O)c2cc2c(=O)cc(C(=O)O)n(CC)c12 [nedocromil] | % | 97.9

Values from the supplement of paper PMC13380429
